- System: NCI-H1944 (Lung Adenocarcinoma)
- Assay Notes: Bliss excess, mean over the matrix (fraction); higher = more synergy
I would appreciate it if you labelled entries Yes when Bliss excess is -0.03 or higher, otherwise No.

Lookup: Identify whether the reported Bliss excess of the following compound is -0.03 or greater: NC1(C(=O)N[C@@H](CCO)c2ccc(Cl)cc2)CCN(c2ncnc3[nH]ccc23)CC1 [Capivasertib] + CCN(CCO)CCCOc1ccc2c(Nc3cc(CC(=O)Nc4cccc(F)c4)[nH]n3)ncnc2c1 [AZD2811] (first compound max 10 µM, 7x7, partner max 1 µM)
Found: Yes

Lookup: API: above_or_equal(metric=Bliss excess, cutoff=-0.03) for item CN(CCO)CC[C@H](CSc1ccccc1)Nc1ccc(S(=O)(=O)NC(=O)c2ccc(N3CCC([C@@H](O)c4ccccc4-c4ccc(Cl)cc4)CC3)cc2)cc1S(=O)(=O)C(F)(F)F [AZD4320] + CCN(CCO)CCCOc1ccc2c(Nc3cc(CC(=O)Nc4cccc(F)c4)[nH]n3)ncnc2c1 [AZD2811] (first compound max 1 µM, 7x7, partner max 1 µM)
Found: Yes

Lookup: Can NC1(C(=O)N[C@@H](CCO)c2ccc(Cl)cc2)CCN(c2ncnc3[nH]ccc23)CC1 [Capivasertib] + C[C@@H]1COCCN1C2=NC(=NC(=C2)C3(CC3)[S@](=N)(=O)C)C4=C5C=CNC5=NC=C4 [AZD6738] (first compound max 10 µM, 7x7, partner max 10 µM) be said to have Bliss excess at or above -0.03?
Found: Yes

Lookup: Is the recorded value of Bliss excess equal to or greater than -0.03 for this compound? CN(CCO)CC[C@H](CSc1ccccc1)Nc1ccc(S(=O)(=O)NC(=O)c2ccc(N3CCC([C@@H](O)c4ccccc4-c4ccc(Cl)cc4)CC3)cc2)cc1S(=O)(=O)C(F)(F)F [AZD4320] + C[C@@H](Nc1cc(F)cc(F)c1)c1cc(C(=O)N(C)C)cc2c(=O)cc(N3CCOCC3)oc12 [AZD8186] (first compound max 1 µM, 7x7, partner max 3 µM)
Found: No

Lookup: Dear colleague, could you confirm whether CC1(C)CCC(CN2CCN(c3ccc(C(=O)NS(=O)(=O)c4ccc(NCC5CCOCC5)c([N+](=O)[O-])c4)c(Oc4cnc5[nH]ccc5c4)c3)CC2)=C(c2ccc(Cl)cc2)C1 [Venetoclax] + C1CN(CCC1(C(=O)N[C@@H](CCO)C2=CC=C(C=C2)Cl)N)C3=NC=NC4=C3C=CN4 [Capivasertib] (first compound max 1 µM, 7x7, partner max 3 µM) has Bliss excess at or above -0.03?
Found: No

Lookup: Assess whether reported Bliss excess for Cn1cnc2c(F)c(Nc3ccc(Br)cc3Cl)c(C(=O)NOCCO)cc21 [Selumetinib] + C=CCn1c(=O)c2cnc(Nc3ccc(N4CCN(C)CC4)cc3)nc2n1-c1cccc(C(C)(C)O)n1 [AZD1775] (first compound max 10 µM, partner max 1 µM) sits at -0.03 or higher.
Found: No

====

- Test system: NCI-H2452 (Mesothelioma)
- Assay Notes: combination Emax (second highest fraction inhibited in the dose matrix, 72 h); higher = more inhibition; extreme values may be limits of the assay
Quantity Kind: combination Emax
Please give only the number in your answer, with no unit.

Lookup: Please give the documented combination Emax of CC1(C)CCC(CN2CCN(c3ccc(C(=O)NS(=O)(=O)c4ccc(NCC5CCOCC5)c([N+](=O)[O-])c4)c(Oc4cnc5[nH]ccc5c4)c3)CC2)=C(c2ccc(Cl)cc2)C1 [Venetoclax] + C1CN(CCC1(C(=O)N[C@@H](CCO)C2=CC=C(C=C2)Cl)N)C3=NC=NC4=C3C=CN4 [Capivasertib] (first compound max 1 µM, 7x7, partner max 3 µM)
Found: 0.272

Lookup: Give the value of combination Emax reported for the following: CN(CCO)CC[C@H](CSc1ccccc1)Nc1ccc(S(=O)(=O)NC(=O)c2ccc(N3CCC([C@@H](O)c4ccccc4-c4ccc(Cl)cc4)CC3)cc2)cc1S(=O)(=O)C(F)(F)F [AZD4320] + Cn1cnc2c(F)c(Nc3ccc(Br)cc3Cl)c(C(=O)NOCCO)cc21 [Selumetinib] (first compound max 1 µM, 7x7, partner max 3 µM)
Found: 0.346

Lookup: Supply recorded combination Emax for Cc1c2c(nn1C)CSCc1cc(n(C)n1)CSc1cc(c3ccccc3c1)OCCCc1c(C(=O)O)n(C)c3c-2c(Cl)ccc13 [AZD5991] + CC1(C)CCC(CN2CCN(c3ccc(C(=O)NS(=O)(=O)c4ccc(NCC5CCOCC5)c([N+](=O)[O-])c4)c(Oc4cnc5[nH]ccc5c4)c3)CC2)=C(c2ccc(Cl)cc2)C1 [Venetoclax] (first compound max 1 µM, 7x7, partner max 1 µM) here.
Found: 0.305

====

- System: NCI-H2452 (Mesothelioma)
- Assay Notes: Bliss excess, mean over the matrix (fraction); higher = more synergy
Quantity Kind: Bliss excess
Please reply with the value in numeric form only.

Lookup: Look up and report measured Bliss excess (NCI-H2452 (Mesothelioma)) for the following compound: CN(CCO)CC[C@H](CSc1ccccc1)Nc1ccc(S(=O)(=O)NC(=O)c2ccc(N3CCC([C@@H](O)c4ccccc4-c4ccc(Cl)cc4)CC3)cc2)cc1S(=O)(=O)C(F)(F)F [AZD4320] + CCN(CCO)CCCOc1ccc2c(Nc3cc(CC(=O)Nc4cccc(F)c4)[nH]n3)ncnc2c1 [AZD2811] (first compound max 1 µM, 7x7, partner max 1 µM)
Found: -0.0111

Lookup: Write Bliss excess of Cn1cnc2c(F)c(Nc3ccc(Br)cc3Cl)c(C(=O)NOCCO)cc21 [Selumetinib] + C[C@@H]1COCCN1C2=NC(=NC(=C2)C3(CC3)[S@](=N)(=O)C)C4=C5C=CNC5=NC=C4 [AZD6738] (first compound max 10 µM, 7x7, partner max 10 µM) ; system used: NCI-H2452 (Mesothelioma)
Found: -0.0476

Lookup: Check NCI-H2452 (Mesothelioma) data and give Bliss excess for CC1(C)CCC(CN2CCN(c3ccc(C(=O)NS(=O)(=O)c4ccc(NCC5CCOCC5)c([N+](=O)[O-])c4)c(Oc4cnc5[nH]ccc5c4)c3)CC2)=C(c2ccc(Cl)cc2)C1 [Venetoclax] + COc1cc(Nc2ncc3c(n2)-c2ccc(Cl)cc2C(c2c(F)cccc2OC)=NC3)ccc1C(=O)O [Alisertib] (first compound max 1 µM, 7x7, partner max 10 µM) .
Found: 0.0053

Lookup: Lab note: record Bliss excess of Cc1c2c(nn1C)CSCc1cc(n(C)n1)CSc1cc(c3ccccc3c1)OCCCc1c(C(=O)O)n(C)c3c-2c(Cl)ccc13 [AZD5991] + C1CN(CCC1(C(=O)N[C@@H](CCO)C2=CC=C(C=C2)Cl)N)C3=NC=NC4=C3C=CN4 [Capivasertib] (first compound max 1 µM, 7x7, partner max 3 µM) tested on NCI-H2452 (Mesothelioma).
Found: -0.0146

Lookup: Specify the recorded Bliss excess for CCN(CCO)CCCOc1ccc2c(Nc3cc(CC(=O)Nc4cccc(F)c4)[nH]n3)ncnc2c1 [AZD2811] + C[C@@H]1COCCN1C2=NC(=NC(=C2)C3(CC3)[S@](=N)(=O)C)C4=C5C=CNC5=NC=C4 [AZD6738] (first compound max 1 µM, 7x7, partner max 10 µM) , system: NCI-H2452 (Mesothelioma).
Found: -0.0756

Lookup: Provide the reported Bliss excess (system: NCI-H2452 (Mesothelioma)) for Cn1cnc2c(F)c(Nc3ccc(Br)cc3Cl)c(C(=O)NOCCO)cc21 [Selumetinib] + CCN(CCO)CCCOc1ccc2c(Nc3cc(CC(=O)Nc4cccc(F)c4)[nH]n3)ncnc2c1 [AZD2811] (first compound max 10 µM, 7x7, partner max 1 µM)
Found: -0.0726

Lookup: Jot down Bliss excess (NCI-H2452 (Mesothelioma)) of Cc1c2c(nn1C)CSCc1cc(n(C)n1)CSc1cc(c3ccccc3c1)OCCCc1c(C(=O)O)n(C)c3c-2c(Cl)ccc13 [AZD5991] + CS(=O)(=O)CCNCc1ccc(-c2ccc3ncnc(Nc4ccc(OCc5cccc(F)c5)c(Cl)c4)c3c2)o1 [Lapatinib] (first compound max 1 µM, 7x7, partner max 10 µM) .
Found: -0.0576

====

- System: NCI-H2023 (Non-Small Cell Lung Carcinoma)
- Assay Notes: combination Emax (second highest fraction inhibited in the dose matrix, 72 h); higher = more inhibition; extreme values may be limits of the assay
Answer Condition not met if combination Emax is under 0.6, and Condition met if it is 0.6 or more.

Lookup: Decide: is the reported value of combination Emax for CC1(C)CCC(CN2CCN(c3ccc(C(=O)NS(=O)(=O)c4ccc(NCC5CCOCC5)c([N+](=O)[O-])c4)c(Oc4cnc5[nH]ccc5c4)c3)CC2)=C(c2ccc(Cl)cc2)C1 [Venetoclax] + C[C@@H](Nc1cc(F)cc(F)c1)c1cc(C(=O)N(C)C)cc2c(=O)cc(N3CCOCC3)oc12 [AZD8186] (first compound max 1 µM, 7x7, partner max 3 µM) equal to or greater than 0.6?
Found: Condition not met

Lookup: Quick check, combination Emax >= 0.6? CCN(CCO)CCCOc1ccc2c(Nc3cc(CC(=O)Nc4cccc(F)c4)[nH]n3)ncnc2c1 [AZD2811] + C[C@@H]1COCCN1C2=NC(=NC(=C2)C3(CC3)[S@](=N)(=O)C)C4=C5C=CNC5=NC=C4 [AZD6738] (first compound max 1 µM, 7x7, partner max 10 µM)
Found: Condition met

Lookup: Reported combination Emax at or above 0.6? CC1(C)CCC(CN2CCN(c3ccc(C(=O)NS(=O)(=O)c4ccc(NCC5CCOCC5)c([N+](=O)[O-])c4)c(Oc4cnc5[nH]ccc5c4)c3)CC2)=C(c2ccc(Cl)cc2)C1 [Venetoclax] + C[C@@H]1COCCN1C2=NC(=NC(=C2)C3(CC3)[S@](=N)(=O)C)C4=C5C=CNC5=NC=C4 [AZD6738] (first compound max 1 µM, 7x7, partner max 10 µM)
Found: Condition met

Lookup: Record C[C@@H](c1ccc2nccn2c1)n1nnc2ncc(-c3cnn(C)c3)nc21 [Savolitinib] + Cc1c2c(nn1C)CSCc1cc(n(C)n1)CSc1cc(c3ccccc3c1)OCCCc1c(C(=O)O)n(C)c3c-2c(Cl)ccc13 [AZD5991] (first compound max 1 µM, 7x7, partner max 1 µM) ; criterion: combination Emax no lower than 0.6. Met?
Found: Condition not met

Lookup: I'd appreciate it if you could say whether C[C@@H](Nc1cc(F)cc(F)c1)c1cc(C(=O)N(C)C)cc2c(=O)cc(N3CCOCC3)oc12 [AZD8186] + C1CN(CCC1(C(=O)N[C@@H](CCO)C2=CC=C(C=C2)Cl)N)C3=NC=NC4=C3C=CN4 [AZD5363] (first compound max 10 µM, 7x7, partner max 10 µM) has combination Emax at least equal to 0.6.
Found: Condition not met

Data provenance is the supplement of paper PMC11061612.
